B1: FERM and PDZ domain-containing protein 4, residues 75 to 154; numbered along this chain, Q14CM0 (parent)
chain: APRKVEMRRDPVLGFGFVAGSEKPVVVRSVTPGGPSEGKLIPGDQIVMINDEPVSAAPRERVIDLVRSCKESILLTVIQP

variants of: B1; experiment: abundance fitness (aPCA) (normalised: wild type 0, dead -1); higher = more abundant; growth selection in yeast, the domain comes from the species named; conditions: Homo sapiens
If the reported abundance fitness equals or exceeds -0.1, assign 1. If not, assign 0.

Test whether the variant `F15A` records abundance fitness of -0.1 or higher.
0

Test whether the variant `Q79L` records abundance fitness of -0.1 or higher.
0

Test whether the variant `P24F` records abundance fitness of -0.1 or higher.
0

Test whether the variant `R61F` records abundance fitness of -0.1 or higher.
1

Test whether the variant `M48S` records abundance fitness of -0.1 or higher.
1

Test whether the variant `V30Y` records abundance fitness of -0.1 or higher.
0

Test whether the variant `G20L` records abundance fitness of -0.1 or higher.
0

Test whether the variant `F17A` records abundance fitness of -0.1 or higher.
0

Test whether the variant `L40S` records abundance fitness of -0.1 or higher.
0

Test whether the variant `V54N` records abundance fitness of -0.1 or higher.
0

Test whether the variant `G34M` records abundance fitness of -0.1 or higher.
0

Test whether the variant `F15R` records abundance fitness of -0.1 or higher.
0

Test whether the variant `V47I` records abundance fitness of -0.1 or higher.
1

Test whether the variant `G20W` records abundance fitness of -0.1 or higher.
0

Test whether the variant `L74F` records abundance fitness of -0.1 or higher.
1

Test whether the variant `I49Q` records abundance fitness of -0.1 or higher.
0

Test whether the variant `R61E` records abundance fitness of -0.1 or higher.
1

Test whether the variant `V77D` records abundance fitness of -0.1 or higher.
0

Test whether the variant `G16R` records abundance fitness of -0.1 or higher.
0

Test whether the variant `P80A` records abundance fitness of -0.1 or higher.
1

Test whether the variant `G20C` records abundance fitness of -0.1 or higher.
1

Test whether the variant `D51W` records abundance fitness of -0.1 or higher.
0

Test whether the variant `M48P` records abundance fitness of -0.1 or higher.
0

Test whether the variant `V26F` records abundance fitness of -0.1 or higher.
0

Test whether the variant `I73N` records abundance fitness of -0.1 or higher.
0

Test whether the variant `I41K` records abundance fitness of -0.1 or higher.
1

Test whether the variant `R9V` records abundance fitness of -0.1 or higher.
0

Test whether the variant `P32E` records abundance fitness of -0.1 or higher.
1

Test whether the variant `T31F` records abundance fitness of -0.1 or higher.
0

Test whether the variant `R8E` records abundance fitness of -0.1 or higher.
1
